This collection of values is drawn from PubChem BioAssay (Tox21).

Test: qHTS assay to identify small molecule agonists of the vitamin D receptor (VDR) signaling pathway - cell viability counter screen (AID 743224); further: nearly all actives have a fitted effect of over 50% in size
Conditions: VDR-bla HEK293T viability, CellTiter-Glo luminescence, 16 h; series mostly up to 62.6 µM
Results filed as inconclusive are left out. The source made the active and inactive calls. The call rests on the fitted dose curve; in most records, active means well fitted cell-killing curve with a large enough effect in the repeat runs; inconclusive means weak or mixed curves, or effect the other way; inactive means no such curve, though single readings can be large or run the other way.
Quantity Name: outcome

[[record]]
smiles_str = "Clc1ccccc1-c1nnc(-c2ccccc2Cl)nn1"
measured_value = "inactive"

[[record]]
smiles_str = "Clc1cccc(Cl)c1"
measured_value = "inactive"

[[record]]
smiles_str = "CCNCC"
measured_value = "inactive"

[[record]]
smiles_str = "Cn1c(-c2ccccc2)cc(-c2ccccc2)[n+]1C"
measured_value = "inactive"

[[record]]
smiles_str = "ClCc1ccccn1"
measured_value = "inactive"

[[record]]
smiles_str = "CCOS(=O)(=O)OCC"
measured_value = "inactive"

[[record]]
smiles_str = "CC(C)(C#N)N=NC(C)(C)C#N"
measured_value = "inactive"

[[record]]
smiles_str = "O=C1CCCO1"
measured_value = "inactive"

[[record]]
smiles_str = "COc1ccc(C=O)cc1OC"
measured_value = "inactive"

